Where do the numbers come from? From ChEMBL document CHEMBL1914343.

ASSAY_DETAILS: Inhibition of soybean arachidonate 15-lipoxygenase
Set-up: species or system Glycine max
// bucketize IC50: low band (below 20 µM), middle band (20 µM to below 30 µM), high band (30 µM or more)

{"columns": ["COMPOUND", "CATEGORY_LABEL"],
 "data": [
  ["N#Cc1ccn2c(-c3ccccc3)c(-c3ccccc3)c(-c3ccco3)c2c1", "middle band"],
  ["N#Cc1ccn2c(-c3ccccc3)c(-c3ccccc3)c(OS(=O)(=O)c3ccc(Cl)cc3)c2c1", "middle band"],
  ["Cc1ccc(COc2c(-c3ccccc3)c(-c3ccccc3)n3ccc(C#N)cc23)cc1", "high band"],
  ["COc1ccc(S(=O)(=O)Oc2c(-c3ccccc3)c(-c3ccccc3)n3ccc(C#N)cc23)c(OC)c1", "middle band"],
  ["N#Cc1ccn2c(-c3ccccc3)c(-c3ccccc3)c(CO)c2c1", "middle band"],
  ["COc1cccc(C(=O)Oc2c(-c3ccccc3)c(-c3ccccc3)n3ccc(C#N)cc23)c1", "middle band"],
  ["COc1ccc(C(=O)Oc2c(-c3ccccc3)c(-c3ccccc3)n3ccc(C#N)cc23)cc1", "middle band"],
  ["O=c1c(O)c(-c2ccc(O)c(O)c2)oc2cc(O)cc(O)c12", "high band"],
  ["Cc1ccc(S(=O)(=O)Oc2c(-c3ccccc3)c(-c3ccccc3)n3ccc(C#N)cc23)cc1", "low band"],
  ["N#Cc1ccn2c(-c3ccccc3)c(-c3ccccc3)c(OS(=O)c3ccsc3)c2c1 (centres undefined)", "middle band"],
  ["COc1ccccc1COc1c(-c2ccccc2)c(-c2ccccc2)n2ccc(C#N)cc12", "middle band"],
  ["N#Cc1ccn2c(-c3ccccc3)c(-c3ccccc3)c(OS(=O)(=O)c3ccccc3)c2c1", "middle band"],
  ["N#Cc1ccn2c(-c3ccccc3)c(-c3ccccc3)c(C(O)C3CCCCC3)c2c1 (centres undefined)", "middle band"],
  ["Cc1cc(C)c(S(=O)(=O)Oc2c(-c3ccccc3)c(-c3ccccc3)n3ccc(C#N)cc23)c(C)c1", "low band"],
  ["N#Cc1ccn2c(-c3ccccc3)c(-c3ccccc3)c(-c3ccsc3)c2c1", "low band"],
  ["CN(C)S(=O)(=O)Oc1c(-c2ccccc2)c(-c2ccccc2)n2ccc(C#N)cc12", "middle band"],
  ["N#Cc1ccn2c(-c3ccc(Cl)cc3)c(-c3ccc(Cl)cc3)cc2c1", "high band"]
]}

----------
ASSAY_DETAILS: Half life in human liver microsomes
Format: ADME, Microsome
Let's look at some compounds and their measured half-life.
ATTRIBUTE_MEASURED: half-life

{"columns": ["STRUCTURE_SMILES_STRING", "EXPERIMENTAL_RESULT"],
 "data": [
  ["c1ccn2cc(-c3ccc(OCCCN4CCCCC4)cc3)cc2c1", "10 min"],
  ["Cc1c(-c2ccc(OCCCN3CCCCC3)cc2)cc2ccccn12", "54 min"]
]}

----------
ASSAY_DETAILS: Inhibition of soybean arachidonate 15-lipoxygenase
Set-up: species or system Glycine max
pIC50: −log10 of the molar value.
Listing of entries alongside the reported pIC50.
ATTRIBUTE_MEASURED: pIC50

{"columns": ["COMPOUND", "EXPERIMENTAL_RESULT"],
 "data": [
  ["CC(O)(c1ccccc1)c1c(-c2ccccc2)c(-c2ccccc2)n2ccc(C#N)cc12 (stereo not drawn)", 4.77],
  ["CCS(=O)(=O)Oc1c(-c2ccccc2)c(-c2ccccc2)n2ccc(C#N)cc12", 4.55],
  ["COc1c(-c2ccccc2)c(-c2ccccc2)n2ccc(C#N)cc12", 4.48],
  ["N#Cc1ccn2c(-c3ccccc3)c(-c3ccccc3)c(C(O)c3ccccc3)c2c1 (stereo not drawn)", 4.46],
  ["COc1ccc(OC)c(S(=O)(=O)Oc2c(-c3ccccc3)c(-c3ccccc3)n3ccc(C#N)cc23)c1", 4.82],
  ["COc1ccc(-c2c(OS(=O)(=O)c3ccc(C)cc3)c3cc(C#N)ccn3c2-c2ccc(OC)cc2)cc1", 4.62],
  ["CC(=O)c1ccn2c(-c3ccccc3)c(-c3ccccc3)c(OS(=O)(=O)c3ccc(C)cc3)c2c1", 4.64],
  ["N#Cc1ccn2c(-c3ccccc3)c(-c3ccccc3)c(-c3cccs3)c2c1", 4.70],
  ["CCc1c(OS(=O)(=O)c2ccc(C)cc2)c2cc(C#N)ccn2c1CC", 4.54],
  ["COc1ccc(S(=O)(=O)Oc2c(-c3ccccc3)c(-c3ccccc3)n3ccc(C#N)cc23)cc1", 4.60],
  ["COc1ccccc1-c1c(-c2ccccc2)c(-c2ccccc2)n2ccc(C#N)cc12", 4.70],
  ["CC(C)S(=O)(=O)Oc1c(-c2ccccc2)c(-c2ccccc2)n2ccc(C#N)cc12", 4.38],
  ["Cc1ccc(S(=O)(=O)Oc2c(-c3ccccc3)c(-c3ccccc3)n3ccc(C#N)cc23)cc1C", 4.72],
  ["Cc1ccc(S(=O)(=O)c2c(-c3ccccc3)c(-c3ccccc3)n3ccc(C#N)cc23)cc1", 4.54],
  ["Cc1ccc(-c2cc3cc(C#N)ccn3c2-c2ccc(C)cc2)cc1", 4.57],
  ["Cc1c(-c2ccccc2)c(-c2ccccc2)n2ccc(C#N)cc12", 4.57],
  ["N#Cc1ccn2c(-c3ccccc3)c(-c3ccccc3)c(OCc3ccc(Cl)cc3)c2c1", 4.51],
  ["N#Cc1ccn2c(-c3ccccc3)c(-c3ccccc3)c(OS(=O)(=O)c3ccc(C(F)(F)F)cc3)c2c1", 4.64],
  ["Cc1ccccc1S(=O)(=O)Oc1c(-c2ccccc2)c(-c2ccccc2)n2ccc(C#N)cc12", 4.66],
  ["Cc1ccc(C(O)c2c(-c3ccccc3)c(-c3ccccc3)n3ccc(C#N)cc23)cc1 (stereo not drawn)", 4.66],
  ["CCCCc1c(OS(=O)(=O)c2ccc(C)cc2)c2cc(C#N)ccn2c1CCCC", 4.52],
  ["N#Cc1ccn2c(-c3ccccc3)c(-c3ccccc3)c(C(O)c3ccc(Cl)cc3)c2c1 (stereo not drawn)", 4.64],
  ["N#Cc1ccn2c(-c3ccccc3)c(-c3ccccc3)c(OCc3ccccc3)c2c1", 4.51],
  ["Cc1ccc(S(=O)(=O)Oc2c(-c3ccccc3)c(-c3ccccc3)n3ccccc23)cc1", 4.60],
  ["N#Cc1ccn2c(-c3ccccc3)c(-c3ccccc3)c(C=O)c2c1", 4.54],
  ["Cc1ccc(S(=O)(=O)Oc2c(-c3ccc(Cl)cc3)c(-c3ccc(Cl)cc3)n3ccc(C#N)cc23)cc1", 4.70],
  ["N#Cc1ccn2c(-c3ccccc3)c(-c3ccccc3)c(OCc3ccc(F)cc3)c2c1", 4.46],
  ["COc1ccc(C(O)c2c(-c3ccccc3)c(-c3ccccc3)n3ccc(C#N)cc23)cc1 (stereo not drawn)", 4.77],
  ["N#Cc1ccn2c(-c3ccccc3)c(-c3ccccc3)c(Cc3ccccc3)c2c1", 4.57],
  ["CS(=O)(=O)c1ccc(S(=O)(=O)Oc2c(-c3ccccc3)c(-c3ccccc3)n3ccc(C#N)cc23)cc1", 4.62],
  ["Cc1ccc(S(=O)(=O)Oc2c(-c3ccccc3)c(-c3ccccc3)n3ccc(C=O)cc23)cc1", 4.70],
  ["N#Cc1ccn2c(-c3ccccc3)c(-c3ccccc3)c(OS(=O)(=O)C(F)(F)F)c2c1", 4.34],
  ["CC(O)c1c(-c2ccccc2)c(-c2ccccc2)n2ccc(C#N)cc12 (stereo not drawn)", 4.59],
  ["N#Cc1ccn2c(-c3ccccc3)c(-c3ccccc3)cc2c1", 4.52],
  ["CC(=O)Oc1c(-c2ccccc2)c(-c2ccccc2)n2ccc(C#N)cc12", 4.51],
  ["COC(c1ccccc1)c1c(-c2ccccc2)c(-c2ccccc2)n2ccc(C#N)cc12 (stereo not drawn)", 4.68],
  ["N#Cc1ccn2c(-c3ccccc3)c(-c3ccccc3)c(OS(=O)c3cccs3)c2c1 (stereo not drawn)", 4.68],
  ["CC(=O)c1c(-c2ccccc2)c(-c2ccccc2)n2ccc(C#N)cc12", 4.64]
]}
